Measured values drawn from the RNAGym collection of RNA variant scans (doi:10.1021/acssynbio.7b00057) for this set.

B1: Pistol ribozyme (parent)
chain: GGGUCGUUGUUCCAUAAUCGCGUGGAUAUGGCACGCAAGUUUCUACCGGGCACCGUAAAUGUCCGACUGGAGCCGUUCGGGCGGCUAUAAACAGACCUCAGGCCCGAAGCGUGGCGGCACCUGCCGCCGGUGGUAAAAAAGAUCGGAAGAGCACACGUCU

variants of: B1; test: aptazyme ON/OFF ratio, guanine; higher = stronger switching; co-transcriptional cleavage with and without guanine
Entries and their aptazyme ON/OFF ratio values follow.
Readout Label: aptazyme ON/OFF ratio

INSERT INTO assay_data (var, measurement) VALUES
  ('U7A U8A G9C U11C C12G C13G', 1.07),
  ('U7A U8C G9C U10A U11C C12G C13A', 1.29),
  ('U7C G9U U10G U11G', 1.11),
  ('U7C U8C G9C U10G U11C C12U C13A', 1.07),
  ('U7C U8C G9U U10A U11A C12A C13G', 1.11),
  ('U8A G9C U10C C12G C13A', 1.07),
  ('U8A G9C U10A U11C C13A', 1.1),
  ('U7G U8A C12U C13A', 1.43),
  ('U7A U8A G9A U11G C12U C13A', 1.16),
  ('U7A G9A U11G C12A C13A', 1.1),
  ('U7C U8G G9U U10A U11C C12A C13G', 1.16),
  ('U7A U8C U10C C12A C13A', 1.25),
  ('U7A U8C G9C U10C U11A C12U C13U', 1.02),
  ('U7C G9A U10G U11A C13U', 1.03),
  ('U7C U8G G9A U10G C12G C13A', 1.25),
  ('U7A U8G G9C U10A U11A C13A', 1.15),
  ('U7A U8A G9A U10A U11G C12U C13A', 1.3),
  ('U7G U8A G9C U10G U11G C12U C13U', 1.15);
